- System: T47D
- METHOD_SUMMARY: Microculture tetrazolium assay
- Format: cell-based
- TEST_CONDITIONS: Homo sapiens, read-out: IC50
READOUT_TYPE: IC50 (µM)
Give bare numbers, in µM.

Sample answers from the record:
MOLECULE: CCOC(=O)[C@@H]1CC2=C(C(=O)c3cc4ccccc4c(O)c3C2=O)[C@@H](O[C@H]2C[C@H](NC(=O)C(F)(F)F)[C@H](O)[C@H](C)O2)O1
SYSTEM_TESTED: T47D
VALUE_REPORTED: 8.15
//
MOLECULE: COC(=O)[C@@H]1CC2=C(C(=O)c3c(c(OC)c4ccccc4c3O)C2=O)[C@@H](O[C@H]2C[C@H](NC(=O)C(F)(F)F)[C@H](O)[C@H](C)O2)O1 (mixture of isomers)
SYSTEM_TESTED: T47D
VALUE_REPORTED: 4.17

Now let's try a different one.
Input: // query IC50 value for entry CC(=O)C1Cc2c(O)c3c(c(O)c2C(O[C@H]2C[C@H](NC(=O)C(F)(F)F)[C@H](O)[C@H](C)O2)O1)C(=O)c1ccccc1C3=O (mixture of isomers)
Output: 9.48

* * *

- Test system: HT29
- METHOD_SUMMARY: Soft agar colony formation disk diffusion assay
- Format: cell-based, human
- TEST_CONDITIONS: 10 μg/DISK
Please respond with reported zone of inhibition for every item in the list.
One number for each entry, in Zone Units.

Example cases with answers are listed next.
COMPOUND: CCOC(=O)[C@@H]1CC2=C(C(=O)c3cc4ccccc4c(OC(C)=O)c3C2=O)[C@@H](O)O1 (mixture of isomers)
READOUT_TYPE: zone of inhibition
READING_UNIT: Zone Units
VALUE_REPORTED: 27.4
--
COMPOUND: CCOC(=O)C1CC2=C(CO1)C(=O)c1c(cc3ccccc3c1O)C2=O (stereo not shown)
READOUT_TYPE: zone of inhibition
READING_UNIT: Zone Units
VALUE_REPORTED: 0
--
COMPOUND: COCOCC(=O)C1CC2=C(CO1)C(=O)c1c(cc3ccccc3c1O)C2=O (stereo not shown)
READOUT_TYPE: zone of inhibition
READING_UNIT: Zone Units
VALUE_REPORTED: 0
--
COMPOUND: CCOC(=O)[C@@H]1CC2=C(C(=O)c3c(c(O)c4ccccc4c3OC(C)=O)C2=O)[C@@H](O)O1 (mixture of isomers)
READOUT_TYPE: zone of inhibition
READING_UNIT: Zone Units
VALUE_REPORTED: 0
--
COMPOUND: CCOC(=O)[C@@H]1CC2=C(C(=O)c3cc4ccccc4c(O)c3C2=O)[C@@H](O[C@H]2C[C@H](NC(=O)C(F)(F)F)[C@H](O)[C@H](C)O2)O1
READOUT_TYPE: zone of inhibition
READING_UNIT: Zone Units
VALUE_REPORTED: 106.7

For every listed record, write down its zone of inhibition.
1. CC(=O)Oc1c2c(c(O)c3ccccc13)C(=O)C1=C(C2=O)C(O)OC(C(C)=O)C1 (stereo not shown)
2. COC(=O)[C@@H]1CC2=C(C(=O)c3c(cc4ccccc4c3O)C2=O)[C@@H](O[C@H]2C[C@H](NC(=O)C(F)(F)F)[C@H](O)[C@H](C)O2)O1
3. COC(=O)[C@@H]1CC2=C(C(=O)c3c(c(OC)c4ccccc4c3O)C2=O)[C@@H](O[C@H]2C[C@H](NC(=O)C(F)(F)F)[C@H](O)[C@H](C)O2)O1 (mixture of isomers)
4. CC(=O)Oc1c2c(c(O)c3ccccc13)C(=O)C1=C(CC(C(C)=O)OC1)C2=O (stereo not shown)
5. CCOC(=O)C1CC2=C(CO1)C(=O)c1c(c(O)c3ccccc3c1OC(C)=O)C2=O (stereo not shown)
6. C=CC1CC2=C(C(=O)c3cc4ccccc4c(O)c3C2=O)C(OC)O1 (stereo not shown)
7. COC(=O)[C@H]1CC2=C(C(=O)c3c(cc4ccccc4c3O)C2=O)[C@H](O[C@H]2C[C@H](NC(=O)C(F)(F)F)[C@H](O)[C@H](C)O2)O1 (mixture of isomers)

Output:
1. 39.6
2. 137.0
3. 122.2
4. 55.5
5. 0
6. 0
7. 105.0

# batch: return zone of inhibition for each of the 2 compounds below
1. CCOC(=O)C1Cc2c(c(OC)c3c(c2OC)C(=O)c2ccccc2C3=O)CS1 (stereo not shown)
2. COC(=O)[C@H]1CC2=C(C(=O)c3c(c(OC)c4ccccc4c3O)C2=O)[C@H](O[C@H]2C[C@H](NC(=O)C(F)(F)F)[C@H](O)[C@H](C)O2)O1 (mixture of isomers)

Output:
1: 0; 2: 0

Dear colleague, could you please provide zone of inhibition for the compounds listed below?
1. CCOC(=O)C1Cc2c(O)c3c(c(O)c2CS1)C(=O)c1ccccc1C3=O (stereo not shown)
2. CCOC(=O)[C@H]1CC2=C(C(=O)c3cc4ccccc4c(O)c3C2=O)[C@H](O[C@H]2C[C@H](NC(=O)C(F)(F)F)[C@H](O)[C@H](C)O2)O1

Output:
1: 0; 2: 137.2

* * *

- System: Renal
Please provide measured GI50 for the entries that follow.
Give bare numbers, in nM.

Provide the reported GI50 of each entry below, same order.
1. COC(=O)[C@@H]1CC2=C(C(=O)c3cc4ccccc4cc3C2=O)[C@H](O[C@H]2C[C@H](NC(=O)C(F)(F)F)[C@H](O)[C@H](C)O2)O1
2. COC(=O)[C@@H]1CC2=C(C(=O)c3cc4ccccc4cc3C2=O)[C@@H](O[C@H]2C[C@H](NC(=O)C(F)(F)F)[C@H](O)[C@H](C)O2)O1
3. CCOC(=O)[C@@H]1CC2=C(C(=O)c3c(cc4ccccc4c3O)C2=O)[C@@H](O[C@H]2C[C@H](NC(=O)C(F)(F)F)[C@H](O)[C@H](C)O2)O1

Output:
[4170, 2820, 1580]

* * *

- Test system: T47D
- METHOD_SUMMARY: Microculture tetrazolium assay
- Format: cell-based
- TEST_CONDITIONS: Homo sapiens, read-out: IC50
Structures can show the parent of a compound that is named as a salt.
Assign pIC50 to each entry below.
Answers are plain numbers, as −log10 of the molar value.

COMPOUND: COC(=O)[C@@H](N)COC1OC(C(C)=O)CC2=C1C(=O)c1cc3ccccc3c(O)c1C2=O (mixture of isomers) [BCH-1657, hydrochloride salt]
VALUE_REPORTED: 5.51

API: the following record is the query input.
Input: pIC50 lookup needed for CC(=O)Nc1nc([C@@H]2CC3=C(C(=O)c4cc5ccccc5c(O)c4C3=O)[C@@H](O[C@H]3C[C@H](NC(=O)C(F)(F)F)[C@H](O)[C@H](C)O3)O2)cs1 , thanks.
Output: 4.37

* * *

- Test system: T47D
- METHOD_SUMMARY: Microculture tetrazolium assay
- Assay type: cell-based
- TEST_CONDITIONS: Homo sapiens, read-out: IC50
Structures can show the parent of a compound that is named as a salt.
READOUT_TYPE: pIC50
One number for each entry, as −log10 of the molar value.

The cases that follow already have their pIC50 on record.
COMPOUND: C[C@@H]1O[C@@H](O[C@H]2O[C@H](C#N)CC3=C2C(=O)c2cc4ccccc4c(O)c2C3=O)C[C@H](NC(=O)C(F)(F)F)[C@@H]1O
READOUT_TYPE: pIC50
VALUE_REPORTED: 6.30

COMPOUND: CC(=O)[C@@H]1CC2=C(C(=O)c3cc4ccccc4c(O)c3C2=O)[C@@H](O[C@H]2C[C@H](NC(=O)C(F)(F)F)[C@H](O)[C@H](C)O2)O1
READOUT_TYPE: pIC50
VALUE_REPORTED: 5.44

COMPOUND: CC[C@H]1CC2=C(C(=O)c3cc4ccccc4c(O)c3C2=O)[C@H](O[C@H]2C[C@H](O)[C@H](O)[C@H](C)O2)O1
READOUT_TYPE: pIC50
VALUE_REPORTED: 5.05

COMPOUND: C[C@@H]1O[C@@H](O[C@@H]2O[C@@H](C(=O)COC(=O)C(C)(C)C)CC3=C2C(=O)c2cc4ccccc4c(O)c2C3=O)C[C@H](NC(=O)C(F)(F)F)[C@@H]1O
READOUT_TYPE: pIC50
VALUE_REPORTED: 5.08

COMPOUND: CC(=O)C1CC2=C(C(=O)c3cc4ccccc4c(O)c3C2=O)C(OC[C@@H](O)CO)O1 (some centres unmarked)
READOUT_TYPE: pIC50
VALUE_REPORTED: 5.10

COMPOUND: C[C@@H]1O[C@@H](O[C@@H]2O[C@@H](COc3ccccc3)Cc3c(O)c4c(c(O)c32)C(=O)c2ccccc2C4=O)C[C@H](N)[C@@H]1O (mixture of isomers)
READOUT_TYPE: pIC50
VALUE_REPORTED: 6.35

COMPOUND: CCC1COC(OC2CC(NC(=O)C(F)(F)F)C(O)C(C)O2)C2=C1C(=O)c1c(cc3ccccc3c1O)C2=O (centres unmarked)
READOUT_TYPE: pIC50
VALUE_REPORTED: 5.44

COMPOUND: C=CC[C@H]1CC2=C(C(=O)c3cc4ccccc4c(O)c3C2=O)[C@H](O[C@H]2C[C@H](N)[C@H](O)[C@H](C)O2)O1 [BCH-2006, hydrochloride]
READOUT_TYPE: pIC50
VALUE_REPORTED: 5.72

List reported pIC50 for each of these compounds:
1. CC(=O)[C@@H]1CC2=C(C(=O)c3cc4ccccc4c(O)c3C2=O)[C@@H](O[C@@H]2O[C@@H](C)[C@@H](O)[C@@H](O)C2I)O1 (some centres unmarked)
2. CC(=O)[C@@H]1Cc2c(O)c3c(c(O)c2[C@@H](O[C@@H]2O[C@@H](C)[C@@H](O)[C@@H](N)C2I)O1)C(=O)c1ccccc1C3=O (some centres unmarked) [BCH-2066, hydrochloride]

Output:
5.41
6.30
